Reported Bmax by item:
Target: T1, recombinant human LILRB2 protein (human, UniProt Q8N423 22-460, limits assumed)
T1 construct: also called recombinant LILRB2 protein
T1 sequence (Q8N423 22-460 limits assumed): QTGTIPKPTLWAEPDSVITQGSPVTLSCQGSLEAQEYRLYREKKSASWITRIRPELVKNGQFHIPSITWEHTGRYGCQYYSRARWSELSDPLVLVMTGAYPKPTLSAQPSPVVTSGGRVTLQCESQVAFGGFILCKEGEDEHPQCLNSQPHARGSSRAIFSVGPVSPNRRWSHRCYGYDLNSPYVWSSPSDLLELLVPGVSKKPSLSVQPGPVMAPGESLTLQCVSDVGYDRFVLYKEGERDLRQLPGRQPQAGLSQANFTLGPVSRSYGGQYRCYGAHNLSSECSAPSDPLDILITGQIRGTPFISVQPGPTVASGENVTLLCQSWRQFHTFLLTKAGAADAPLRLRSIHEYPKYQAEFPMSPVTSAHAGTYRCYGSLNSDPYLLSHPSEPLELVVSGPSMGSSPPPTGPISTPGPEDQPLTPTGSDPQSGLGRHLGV
Assay: ELISA, coated recombinant human LILRB2
Design: unit not given here

>  <Binder>
Antibody 2E1_GG1 (antibody, V domains shown) VH: EVQLVESGGGLVQPGGSLRLSCAVSGYSITSGYAWNWIRQAPGKGLEWVAYISYDGNNNYNPSLKNRFTISRDTSKNTFYLQMNSLRAEDTAVYYCAREESTMITTAWFAYWGQGTLVTVSS VL: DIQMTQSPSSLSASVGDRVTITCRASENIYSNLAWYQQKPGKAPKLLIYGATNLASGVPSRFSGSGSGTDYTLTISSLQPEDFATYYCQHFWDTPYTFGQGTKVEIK

>  <Bmax>
1.56

$$$$
>  <Binder>
Antibody 2E1_FG2 (antibody, V domains shown) VH: EVQLVESGGGLVQPGGSLRLSCAVSGYSITSGYYWNWIRQAPGKGLEWVAYISYDGNTNYNPSLKNRFTISRDTSKNTFYLQMNSLRAEDTAVYYCAREESTMITTAWFAYWGQGTLVTVSS VL: DIQMTQSPSSLSASVGDRVTITCRASENIYSNLAWYQQKPGKAPKLLIYGATNLASGVPSRFSGSGSGTDYTLTISSLQPEDFATYYCQHFWDTPYVFGQGTKVEIK

>  <Bmax>
1.26

$$$$
>  <Binder>
Antibody 2E1_GB11 (antibody, V domains shown) VH: EVQLVESGGGLVQPGGSLRLSCAVSGYSITSGYYWNWIRQAPGKGLEWVAYISYDGNNNYNPSLKNRFTISRDTSKNTFYLQMNSLRAEDTAVYYCAREESTMITTAWFAYWGQGTLVTVSS VL: DIQMTQSPSSLSASVGDRVTITCRASENIYSNLAWYQQKPGKAPKLLIYGATNLALGVPSRFSGSGSGTDYTLTISSLQPEDFATYYCQHFWDTPYTFGQGTKVEIK

>  <Bmax>
1.16

$$$$

Every entry's value here was drawn from patent US20240109962A1.
